- TEST SYSTEM: TNAP (Homo sapiens, UniProt P05186)
- TEST: luminescent CDP-star-based TNAP assay, MLSMR screen (PubChem AID 518)
- ASSAY SETUP: Table 3
PARAMETER: TNAP Activation Factor

Solved cases (3 shown):
| COMPOUND | TNAP Activation Factor |
| --- | --- |
| COc1ccc(CCNC(=O)c2cc(-c3ccccc3O)[nH]n2)cc1OC [drawing 75] | 1.9 |
| c1nc(-c2[nH]nc3c2CCC3)n2nc(C3CCCCC3)sc12 | 1.5 |
| O=C(CN(Cc1ccco1)C(=O)CNS(=O)(=O)c1ccc(F)cc1)NCc1ccc(F)cc1 [drawing 76] | 1.7 |

P. NC1=NC(c2cn(-c3ccccc3)nc2-c2cccs2)n2c(nc3ccccc32)N1 (centres unmarked) [drawing 72]
Q. Cc1cc(C2N=C(N)Nc3nc4ccccc4n32)c(C)n1-c1ccccc1Cl (centres unmarked) [drawing 66]
INPUT: # argmax over TNAP Activation Factor for candidates P and Q # respond with the chosen item's label
OUTPUT: Q
(Q: 2.2, P: 1.5)

====

- TEST SYSTEM: TNAP (Homo sapiens)
- TEST: luminescent CDP-star-based TNAP assay, MLSMR screen (PubChem AID 518)
- ASSAY SETUP: Table 3
PARAMETER: TNAP Activation Factor

| MOLECULE | PARAMETER | NUMBER |
| --- | --- | --- |
| OCCN1CCOCCN(CCO)CCN(CCO)CC1 [drawing 74] | TNAP Activation Factor | 1.9 |
| OCCN(CCO)c1nc(N2CCCCC2)c2nc(N(CCO)CCO)nc(N3CCCCC3)c2n1 | TNAP Activation Factor | 1.6 |
| Cc1nn2c(O)cc(C(C)(C)C)nc2c1-c1ccccc1 [drawing 67] | TNAP Activation Factor | 1.8 |
| OCCCN1c2ccccc2Nc2nnc(-c3ccccc3)cc21 [drawing 70] | TNAP Activation Factor | 1.5 |

P. Oc1c(C(c2ccccn2)N2CCOCC2)ccc2cccnc12 (stereo not drawn) [drawing 68]
Q. N=c1c2c(-c3ccccc3)c(-c3ccccc3)n(Cc3ccccc3)c2ncn1CCCn1ccnc1 [drawing 64]
INPUT: # argmax over TNAP Activation Factor for candidates P and Q # respond with the chosen item's label
OUTPUT: Q
(Q: 4.3, P: 1.7)

====

- TEST SYSTEM: TNAP (Homo sapiens, UniProt P05186)
- TEST: luminescent CDP-star-based TNAP assay, MLSMR screen (PubChem AID 518)
- ASSAY SETUP: calculated as (100-X)/100, where X is % inhibition; luminescence
PARAMETER: TNAP Activation Factor

| COMPOUND | TNAP Activation Factor |
| --- | --- |
| O=C(CN(Cc1ccco1)C(=O)CNS(=O)(=O)c1ccc(F)cc1)NCc1ccc(F)cc1 | 1.7 |

a. CC(C)n1c(NCc2nc3ccccc3n2C)nc2ccccc21
b. N=c1c2c(-c3ccccc3)c(-c3ccccc3)n(Cc3ccccc3)c2ncn1CCCn1ccnc1
INPUT: # argmax over TNAP Activation Factor for candidates a and b # respond with the chosen item's label
OUTPUT: b
(b: 4.3, a: 2.0)

====

- TEST SYSTEM: UniProtKB P05186
- Sequence (P05186 18-502 limits assumed): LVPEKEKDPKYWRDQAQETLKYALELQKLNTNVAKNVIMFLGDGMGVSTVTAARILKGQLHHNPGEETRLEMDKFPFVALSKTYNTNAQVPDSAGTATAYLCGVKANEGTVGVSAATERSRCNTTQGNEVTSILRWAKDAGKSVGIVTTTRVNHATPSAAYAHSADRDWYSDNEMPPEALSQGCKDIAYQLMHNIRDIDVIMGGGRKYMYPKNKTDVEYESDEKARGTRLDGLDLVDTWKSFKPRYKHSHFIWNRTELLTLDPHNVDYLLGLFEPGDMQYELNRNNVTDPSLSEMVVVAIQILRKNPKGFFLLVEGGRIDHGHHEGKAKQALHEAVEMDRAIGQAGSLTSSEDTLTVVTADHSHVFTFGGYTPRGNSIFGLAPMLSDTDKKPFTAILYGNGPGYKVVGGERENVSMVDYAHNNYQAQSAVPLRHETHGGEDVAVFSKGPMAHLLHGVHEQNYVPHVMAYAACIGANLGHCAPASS
- TEST: luminescent CDP-star-based TNAP assay, MLSMR screen (PubChem AID 518)
- ASSAY SETUP: calculated as (100-X)/100, where X is % inhibition; luminescence
PARAMETER: TNAP Activation Factor

| MOLECULE | TNAP Activation Factor |
| --- | --- |
| Clc1ccc(COC(Cn2ccnc2)c2ccc(Cl)cc2Cl)c(Cl)c1 (stereo not drawn) [Compound 17] | 1.7 |

A. OCCN(CCO)c1cc2c(N3CCCCC3)nc(N(CCO)CCO)nc2c(N2CCCCC2)n1 [Compound 18]
B. CCN(CC)c1ccc2cc(-c3nc4ccccc4n3C)c(=O)oc2c1 [Compound 4]
INPUT: Sorting ascending by TNAP Activation Factor, which comes first: A or B ? # respond with the chosen item's label
OUTPUT: A

====

- TEST SYSTEM: TNAP (Homo sapiens)
- TEST: luminescent CDP-star-based TNAP assay, MLSMR screen (PubChem AID 518)
- ASSAY SETUP: calculated as (100-X)/100, where X is % inhibition; luminescence
PARAMETER: TNAP Activation Factor

| COMPOUND | NUMBER |
| --- | --- |
| C1CCC(c2nn3c(-c4[nH]nc5c4CCC5)nnc3s2)CC1 | 1.5 |
| OCCN1CCOCCN(CCO)CCN(CCO)CC1 | 1.9 |
| Cc1cc(C2N=C(N)Nc3nc4ccccc4n32)c(C)n1-c1ccccc1Cl (stereo not shown) | 2.2 |
| O=S(=O)(CCc1ncc(-c2ccccc2)o1)c1ccc2ccccc2c1 | 1.6 |

====

- TEST SYSTEM: UniProtKB P05186
- Sequence (P05186 18-502 limits assumed): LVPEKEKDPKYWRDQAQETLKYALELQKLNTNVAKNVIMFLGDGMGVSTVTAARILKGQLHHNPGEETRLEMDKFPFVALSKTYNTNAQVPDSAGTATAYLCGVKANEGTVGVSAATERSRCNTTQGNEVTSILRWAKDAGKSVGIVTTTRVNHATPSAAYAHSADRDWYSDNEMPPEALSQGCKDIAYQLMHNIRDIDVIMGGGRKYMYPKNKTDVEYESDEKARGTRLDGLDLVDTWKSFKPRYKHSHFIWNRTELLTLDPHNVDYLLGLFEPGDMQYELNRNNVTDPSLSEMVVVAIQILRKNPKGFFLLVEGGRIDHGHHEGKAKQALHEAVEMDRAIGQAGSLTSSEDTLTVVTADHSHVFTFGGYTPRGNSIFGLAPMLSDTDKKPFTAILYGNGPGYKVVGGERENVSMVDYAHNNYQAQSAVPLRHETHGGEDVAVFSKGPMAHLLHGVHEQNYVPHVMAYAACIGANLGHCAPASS
- TEST: luminescent CDP-star-based TNAP assay, MLSMR screen (PubChem AID 518)
- ASSAY SETUP: calculated as (100-X)/100, where X is % inhibition; luminescence
PARAMETER: TNAP Activation Factor

| MOLECULE | PARAMETER | NUMBER |
| --- | --- | --- |
| COc1cccc(N(C(=O)c2cc[nH]n2)C2(C(=O)Nc3c(C)cccc3C)CCCCC2)c1 | TNAP Activation Factor | 1.6 |
| Oc1c(C(c2ccccn2)N2CCOCC2)ccc2cccnc12 (stereo not drawn) | TNAP Activation Factor | 1.7 |
| OCCCN1c2ccccc2Nc2nnc(-c3ccccc3)cc21 | TNAP Activation Factor | 1.5 |
| Nc1[nH]nc2nc(NCc3ccccc3)c3c(c12)CCN(Cc1ccccc1)C3 | TNAP Activation Factor | 1.9 |
| NC1=NC(c2cn(-c3ccccc3)nc2-c2cccs2)n2c(nc3ccccc32)N1 (stereo not drawn) | TNAP Activation Factor | 1.5 |
| COc1ccc(CCNC(=O)c2cc(-c3ccccc3O)[nH]n2)cc1OC | TNAP Activation Factor | 1.9 |
